meta.source: patent US12410194B2

biological target: CDK8/cyclin C (Homo sapiens (Human), UniProt P49336); experiment: LanthaScreen Eu Kinase Binding Assay for CDK8/cyclin C; conditions: 10-point curve, 4-fold dilution series, 60 min at room temperature
Sequence (P49336 whole entry, looked up): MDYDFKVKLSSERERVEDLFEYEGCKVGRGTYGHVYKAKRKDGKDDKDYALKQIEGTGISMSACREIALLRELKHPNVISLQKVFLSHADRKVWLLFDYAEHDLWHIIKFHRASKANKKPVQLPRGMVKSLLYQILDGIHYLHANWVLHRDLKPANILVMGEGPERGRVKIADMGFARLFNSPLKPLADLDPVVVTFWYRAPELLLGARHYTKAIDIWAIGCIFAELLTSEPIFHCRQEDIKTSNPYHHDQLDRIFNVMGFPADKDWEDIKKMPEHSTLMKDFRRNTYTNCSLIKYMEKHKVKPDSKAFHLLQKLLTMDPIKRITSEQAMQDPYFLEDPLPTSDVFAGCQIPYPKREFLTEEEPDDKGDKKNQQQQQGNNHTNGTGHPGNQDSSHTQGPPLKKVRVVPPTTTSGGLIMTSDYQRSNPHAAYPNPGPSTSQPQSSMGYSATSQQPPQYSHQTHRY
Sequence (P24863 whole entry partner, looked up): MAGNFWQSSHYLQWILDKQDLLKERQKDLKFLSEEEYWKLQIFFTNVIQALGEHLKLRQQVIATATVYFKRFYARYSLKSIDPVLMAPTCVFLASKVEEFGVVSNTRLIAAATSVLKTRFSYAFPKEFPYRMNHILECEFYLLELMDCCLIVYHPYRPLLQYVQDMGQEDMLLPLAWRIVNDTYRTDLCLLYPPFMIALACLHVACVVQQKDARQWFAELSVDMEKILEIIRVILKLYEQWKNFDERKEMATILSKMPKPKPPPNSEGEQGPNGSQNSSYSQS
Measurement type: log10 of IC50 (log10 of the value in nM)
Base-10 log of IC50, unit nM.

Cn1ncc2cc(-c3cnc4[nH]ccc4c3N3CCC4(CCNC4=O)C3)ccc21 (centres unmarked) [Compound 017]    1.74
O=C1NCCC12CCN(c1c(-c3ccc4ncnn4c3)cnc3[nH]ccc13)CC2 [Compound 007]    2.44
Cn1cnc2cc(-c3cnc4[nH]ccc4c3N3CCC4(CCNC4=O)CC3)ccc21 [Compound 005]    1.51
Cc1n[nH]c2ncc(-c3ccc4c(cnn4C)c3)c(N3CCC4(CCNC4=O)CC3)c12 [Compound 021]    1.56
O=C1NCCC12CCN(c1c(-c3ccc4ncsc4c3)cnc3[nH]ccc13)CC2 [Compound 004]    1.39

Record log10 of IC50 per entry; entries follow.
1. Cn1ncc2cc(-c3cnc4[nH]ccc4c3N3CCC4(CC3)CNC(=O)O4)ccc21 [Compound 011]
2. Cn1ncc2cc(-c3cnc4[nH]ccc4c3N3CCC4(CCCNC4=O)CC3)ccc21 [Compound 006]
3. Cn1ncc2cc(-c3cnc4[nH]nc(Cl)c4c3N3CCC4(CCNC4=O)CC3)ccc21 [Compound 020]

1. 0.85
2. 0.48
3. 0.14
